- Tested on: ABL1(H396P)-nonphosphorylated;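 also: KINOMEscan scanMAX binding as percent activity remaining versus control; lower means stronger binding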
- Condition Parameters: Compound Concentration (nM):1000
Please provide measured Percent Control for the entries that follow.

O=C(Nc1n[nH]c2nc(-c3ccc(O)cc3)c(Br)cc12)C1CC1 | 1.9%
COc1cc2ncn(-c3cc(O[C@H](C)c4ccccc4Cl)c(C(N)=O)s3)c2cc1OC [GSK237701A] | 20%

Report Percent Control for every entry below.
1. NS(=O)(=O)c1ccc(N/N=C2\C(=O)Nc3ccc(-c4cnco4)cc32)cc1
2. CC1=C(C(=O)Nc2ccc3[nH]ncc3c2)C(c2ccc3ccccc3c2)CC(=O)N1 (stereo not shown) [GSK270822A]
3. COc1cc(/C=N/Nc2ncnc3[nH]ncc23)ccc1O [GW578748X]
4. CCn1c(-c2nonc2N)nc2c(C#CC(C)(C)O)nc(OCCNC)cc21.Cl
5. Cl.c1ccc(Cc2nc3ccc(Nc4ncnc5ccccc45)cc3[nH]2)cc1 [GR269666A]

1. 58%
2. 59%
3. 0%
4. 85%
5. 86%

Dear colleague, could you send me Percent Control for each of the items below? Thanks.
1. Cc1cc(O)cc(C)c1/C=C/c1cncc(C(N)=O)c1 [GW435821X]
2. CN(C)CCNC(=O)Nc1ccc(N(C)c2ccnc(Nc3ccc(CS(C)(=O)=O)cc3)n2)cc1.Cl [GW830900A]
3. CN1CCN(C(=O)c2ccc(NC(=O)Nc3ccc(N(C)c4ccnc(Nc5ccc(CS(C)(=O)=O)cc5)n4)cc3)cc2)CC1.Cl [GW830263A]
4. Nc1ncnc2occ(-c3ccc(NC(=O)Nc4cc(C(F)(F)F)ccc4F)cc3)c12 [GW770249X]
5. COC(=O)Nc1nc2ccc(Oc3ccc(NC(=O)Nc4cc(C(F)(F)F)ccc4F)cc3)cc2s1.Cl [GW693917A]
6. NS(=O)(=O)c1ccc(N/N=C2\C(=O)Nc3ccc(Cl)cc32)cc1 [GW280670X]
7. COc1cc(C)c(N(C)C(=O)CN(C)C)cc1Nc1nc(Nc2cccc(F)c2C(N)=O)c2cc[nH]c2n1
8. CCc1ccc(Oc2nccc(-c3c(-c4ccc(F)cc4)ncn3C3CCNCC3)n2)cc1

1. 4.9%
2. 38%
3. 1.4%
4. 2.9%
5. 0%
6. 81%
7. 51%
8. 77%

Hi there! I need Percent Control for each item below, if you can.
1. CC1=C(C(=O)Nc2ccc3[nH]ncc3c2)C(c2ccc(Cl)c(Cl)c2)CC(=O)N1 (stereo not shown) [GSK299115A]
2. NS(=O)(=O)c1ccc(N/N=C2\C(=O)Nc3ccc(C(=O)NCCc4c[nH]cn4)cc32)cc1 [GW300660X]
3. Cl.O=C(Nc1ccc(Oc2ccc3[nH]c(NC(=O)c4ccccc4)nc3c2)cc1)Nc1cc(C(F)(F)F)ccc1F [GW709042A]
4. COc1ccc2cc(-c3c(-c4ccncc4)nc(-c4ccc(S(C)(=O)=O)cc4C)n3C)ccc2c1

1: 79%; 2: 93%; 3: 9.9%; 4: 58%
